assay: Degradation half life in human plasma at 5000 ng/mL by UPLC-MS analysis; format: ADME, cell-free
Hi there, I'd appreciate the recorded half-life at 5000 ng/mL for every entry that follows.
Give the number; min is assumed, so skip it.

Query: Name the recorded half-life at 5000 ng/mL for `CCCC(=O)OC[C@H]1O[C@@H](n2cc(-c3ccc(S(N)(=O)=O)cc3)nn2)[C@H](OC(=O)CCC)[C@@H](OC(=O)CCC)[C@@H]1OC(=O)CCC` .
Reply: 25

Query: Name the recorded half-life at 5000 ng/mL for `CCC(=O)OC[C@H]1O[C@@H](n2cc(-c3ccc(S(N)(=O)=O)cc3)nn2)[C@H](OC(=O)CC)[C@@H](OC(=O)CC)[C@@H]1OC(=O)CC` .
Reply: 3

Query: Name the recorded half-life at 5000 ng/mL for `CC(=O)OC[C@H]1O[C@@H](n2cc(-c3ccc(S(N)(=O)=O)cc3)nn2)[C@H](OC(C)=O)[C@@H](OC(C)=O)[C@@H]1OC(C)=O` .
Reply: 7

----------
Hi there, I'd appreciate the recorded Ki for every entry that follows.
Give the number; nM is assumed, so skip it.

Query: Given the entry `CC(=O)OC[C@H]1O[C@@H](n2cc(-c3ccc(S(N)(=O)=O)cc3)nn2)[C@H](OC(C)=O)[C@@H](OC(C)=O)[C@@H]1OC(C)=O` , what Ki was observed with Carbonic anhydrase 12 (Homo sapiens)?
Reply: 67.1

Query: Given the entry `NS(=O)(=O)c1ccc(-c2cn([C@@H]3O[C@H](CO)[C@@H](O)[C@H](O)[C@H]3O)nn2)cc1` , what Ki was observed with Carbonic anhydrase 12 (Homo sapiens)?
Reply: 40.1

Query: Given the entry `NS(=O)(=O)c1ccc(-c2cn([C@@H]3O[C@H](CO)[C@H](O)[C@H](O)[C@H]3O)nn2)cc1` , what Ki was observed with Carbonic anhydrase 12 (Homo sapiens)?
Reply: 36.3

Query: Given the entry `CC(=O)OC[C@H]1O[C@@H](n2cc(-c3ccc(S(N)(=O)=O)cc3)nn2)[C@H](OC(C)=O)[C@@H](OC(C)=O)[C@H]1OC(C)=O` , what Ki was observed with Carbonic anhydrase 12 (Homo sapiens)?
Reply: 9.7

Query: Given the entry `CCCC(=O)OC[C@H]1O[C@@H](n2cc(-c3ccc(S(N)(=O)=O)cc3)nn2)[C@H](OC(=O)CCC)[C@@H](OC(=O)CCC)[C@@H]1OC(=O)CCC` , what Ki was observed with Carbonic anhydrase 12 (Homo sapiens)?
Reply: 50.2

----------
Hi there, I'd appreciate the recorded Ki for every entry that follows.
Give the number; nM is assumed, so skip it.

Query: Given the entry `CCCCC(=O)OC[C@H]1O[C@@H](n2cc(-c3ccc(S(N)(=O)=O)cc3)nn2)[C@H](OC(=O)CCCC)[C@@H](OC(=O)CCCC)[C@H]1OC(=O)CCCC` , what Ki was observed with Carbonic anhydrase 2 (Homo sapiens, UniProt P00918)?
Reply: 73.6

Query: Given the entry `NS(=O)(=O)c1ccc(-c2cn([C@@H]3O[C@H](CO)[C@H](O)[C@H](O)[C@H]3O)nn2)cc1` , what Ki was observed with Carbonic anhydrase 2 (Homo sapiens, UniProt P00918)?
Reply: 6.7

Query: Given the entry `CC(C)CC(=O)OC[C@H]1O[C@@H](n2cc(-c3ccc(S(N)(=O)=O)cc3)nn2)[C@H](OC(=O)CC(C)C)[C@@H](OC(=O)CC(C)C)[C@H]1OC(=O)CC(C)C` , what Ki was observed with Carbonic anhydrase 2 (Homo sapiens, UniProt P00918)?
Reply: 37.9

Query: Given the entry `CCCC(=O)OC[C@H]1O[C@@H](n2cc(-c3ccc(S(N)(=O)=O)cc3)nn2)[C@H](OC(=O)CCC)[C@@H](OC(=O)CCC)[C@@H]1OC(=O)CCC` , what Ki was observed with Carbonic anhydrase 2 (Homo sapiens, UniProt P00918)?
Reply: 76.3
